biological target: recombinant HCV NS5B (HCV RNA-dependent RNA polymerase) (Hepatitis C virus genotype 1b); experiment: biochemical; settings: related polymerase activity (Example 27 list); read-out: IC50
Sequence (P26663 2420-3010 limits assumed): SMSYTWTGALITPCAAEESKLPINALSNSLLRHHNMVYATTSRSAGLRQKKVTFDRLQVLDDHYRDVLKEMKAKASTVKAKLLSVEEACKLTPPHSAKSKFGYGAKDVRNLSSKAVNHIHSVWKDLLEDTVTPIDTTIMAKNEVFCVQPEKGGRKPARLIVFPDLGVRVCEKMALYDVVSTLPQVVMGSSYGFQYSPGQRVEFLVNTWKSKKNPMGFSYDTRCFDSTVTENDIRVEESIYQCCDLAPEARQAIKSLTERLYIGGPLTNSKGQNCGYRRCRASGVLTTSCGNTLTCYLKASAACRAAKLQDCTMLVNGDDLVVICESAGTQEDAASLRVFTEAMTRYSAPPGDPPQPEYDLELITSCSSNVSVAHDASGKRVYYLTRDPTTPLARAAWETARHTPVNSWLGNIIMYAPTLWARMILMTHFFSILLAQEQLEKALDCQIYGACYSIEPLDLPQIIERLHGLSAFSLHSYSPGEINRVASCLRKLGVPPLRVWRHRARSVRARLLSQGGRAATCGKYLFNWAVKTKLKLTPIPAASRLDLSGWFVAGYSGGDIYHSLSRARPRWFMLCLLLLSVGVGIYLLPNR
pIC50: −log10 of the molar value.
Readout Name: pIC50

INSERT INTO results (compound, target_entity, recorded_measurement) VALUES
  ('Cc1ccccc1S(=O)(=O)Nc1cc(/C=C/c2ccccc2)sc1C(=O)O [Compound 108]', 'recombinant HCV NS5B (HCV RNA-dependent RNA polymerase) (Hepatitis C virus genotype 1b)', '> 5.30'),
  ('CC(C)N(C(=O)c1ccccc1Cl)c1cc(-c2ccccc2)sc1C(=O)O [Compound 218]', 'recombinant HCV NS5B (HCV RNA-dependent RNA polymerase) (Hepatitis C virus genotype 1b)', '4.70 to 5.30'),
  ('COc1ccc(N2CCN(C(=O)Nc3cc(-c4ccccc4)sc3C(=O)O)CC2)cc1 [Compound 181]', 'recombinant HCV NS5B (HCV RNA-dependent RNA polymerase) (Hepatitis C virus genotype 1b)', '4.70 to 5.30'),
  ('CC(=O)N(Cc1ccc(Cl)cc1)c1cc(-c2ccccc2)sc1C(=O)O [Compound 241]', 'recombinant HCV NS5B (HCV RNA-dependent RNA polymerase) (Hepatitis C virus genotype 1b)', '4.70 to 5.30'),
  ('O=C(O)c1sc(-c2ccccc2)cc1NS(=O)(=O)c1cnc(Cl)c(Br)c1 [Compound 36]', 'recombinant HCV NS5B (HCV RNA-dependent RNA polymerase) (Hepatitis C virus genotype 1b)', '< 4.70'),
  ('COc1cc(C)c(S(=O)(=O)Nc2cc(-c3ccccc3)sc2C(=O)O)c(C)c1C [Compound 22]', 'recombinant HCV NS5B (HCV RNA-dependent RNA polymerase) (Hepatitis C virus genotype 1b)', '> 5.30'),
  ('CC(=O)Nc1cccc(-c2cc(NS(=O)(=O)c3ccccc3C)c(C(=O)O)s2)c1 [Compound 90]', 'recombinant HCV NS5B (HCV RNA-dependent RNA polymerase) (Hepatitis C virus genotype 1b)', '4.70 to 5.30'),
  ('O=C(O)c1sc(-c2ccccc2)cc1NCc1ccc(Cl)cc1Cl [Compound 48]', 'recombinant HCV NS5B (HCV RNA-dependent RNA polymerase) (Hepatitis C virus genotype 1b)', '> 5.30'),
  ('Cc1cc(S(=O)(=O)N(Cc2cccc(I)c2)c2cc(-c3ccccc3)sc2C(=O)O)c(C)cc1Cl [Compound 1]', 'recombinant HCV NS5B (HCV RNA-dependent RNA polymerase) (Hepatitis C virus genotype 1b)', '4.70 to 5.30'),
  ('Cc1ccccc1S(=O)(=O)Nc1cc(-c2ccc(Cl)cc2)sc1C(=O)O [Compound 68]', 'recombinant HCV NS5B (HCV RNA-dependent RNA polymerase) (Hepatitis C virus genotype 1b)', '> 5.30'),
  ('CCCC(=O)N(C)c1cc(-c2ccccc2)sc1C(=O)O [Compound 385]', 'recombinant HCV NS5B (HCV RNA-dependent RNA polymerase) (Hepatitis C virus genotype 1b)', '4.70 to 5.30'),
  ('Cc1cc(S(=O)(=O)Nc2cc(-c3ccc(CC(C)C)cc3)sc2C(=O)O)c(C)cc1Cl [Compound #19]', 'recombinant HCV NS5B (HCV RNA-dependent RNA polymerase) (Hepatitis C virus genotype 1b)', '4.70 to 5.30'),
  ('Cc1ccccc1S(=O)(=O)Nc1cc(-c2ccc(Cl)cn2)sc1C(=O)O [Compound 191]', 'recombinant HCV NS5B (HCV RNA-dependent RNA polymerase) (Hepatitis C virus genotype 1b)', '> 5.30'),
  ('Cc1cccc(S(=O)(=O)Nc2cc(-c3ccccc3)sc2C(=O)O)c1 [Compound 16]', 'recombinant HCV NS5B (HCV RNA-dependent RNA polymerase) (Hepatitis C virus genotype 1b)', '4.70 to 5.30'),
  ('N#Cc1ccccc1-c1ccc(CN(C(=O)c2ccc(Cl)cc2Cl)c2cc(-c3ccccc3)sc2C(=O)O)s1 [Compound 132]', 'recombinant HCV NS5B (HCV RNA-dependent RNA polymerase) (Hepatitis C virus genotype 1b)', '> 5.30'),
  ('CC(C)(C)c1cc(NS(=O)(=O)c2ccc(Cl)cc2)c(C(=O)O)s1 [Compound 10]', 'recombinant HCV NS5B (HCV RNA-dependent RNA polymerase) (Hepatitis C virus genotype 1b)', '> 5.30'),
  ('O=C(O)c1sc(-c2ccc(F)cc2)cc1NS(=O)(=O)c1ccccn1 [Compound 133]', 'recombinant HCV NS5B (HCV RNA-dependent RNA polymerase) (Hepatitis C virus genotype 1b)', '> 5.30'),
  ('Cc1cc(F)ccc1S(=O)(=O)Nc1cc(-c2ccccc2)sc1C(=O)O [Compound 370]', 'recombinant HCV NS5B (HCV RNA-dependent RNA polymerase) (Hepatitis C virus genotype 1b)', '4.70 to 5.30'),
  ('CN(C(=O)c1ccccc1Br)c1cc(-c2ccccc2)sc1C(=O)O [Compound 187]', 'recombinant HCV NS5B (HCV RNA-dependent RNA polymerase) (Hepatitis C virus genotype 1b)', '4.70 to 5.30'),
  ('Cc1ccccc1S(=O)(=O)Nc1cc(-c2ccccc2)sc1C(=O)O [Compound 15]', 'recombinant HCV NS5B (HCV RNA-dependent RNA polymerase) (Hepatitis C virus genotype 1b)', '< 4.70'),
  ('COc1cccc(CN(C(=O)c2ccc(C)cc2)c2cc(-c3ccccc3)sc2C(=O)O)c1 [Compound 344]', 'recombinant HCV NS5B (HCV RNA-dependent RNA polymerase) (Hepatitis C virus genotype 1b)', '> 5.30'),
  ('O=C(O)c1sc(-c2ccccc2)cc1NS(=O)(=O)c1ccc(C(F)(F)F)cn1 [Compound 98]', 'recombinant HCV NS5B (HCV RNA-dependent RNA polymerase) (Hepatitis C virus genotype 1b)', '4.70 to 5.30'),
  ('CC(=O)c1ccc(S(=O)(=O)Nc2cc(-c3ccccc3)sc2C(=O)O)cc1 [Compound 140]', 'recombinant HCV NS5B (HCV RNA-dependent RNA polymerase) (Hepatitis C virus genotype 1b)', '4.70 to 5.30'),
  ('O=C(O)c1sc(-c2ccccc2)cc1NS(=O)(=O)c1ccc(-c2csnn2)s1 [Compound 46]', 'recombinant HCV NS5B (HCV RNA-dependent RNA polymerase) (Hepatitis C virus genotype 1b)', '4.70 to 5.30'),
  ('CC(C)N(C(=O)c1ccc(Cl)cc1Cl)c1cc(-c2cc3ccccc3o2)sc1C(=O)O [Compound 376]', 'recombinant HCV NS5B (HCV RNA-dependent RNA polymerase) (Hepatitis C virus genotype 1b)', '> 5.30'),
  ('CC(=O)c1ccc(-c2cc(NS(=O)(=O)c3ccccc3C)c(C(=O)O)s2)s1 [Compound 229]', 'recombinant HCV NS5B (HCV RNA-dependent RNA polymerase) (Hepatitis C virus genotype 1b)', '> 5.30'),
  ('Cc1ccccc1S(=O)(=O)Nc1cc(-c2ccccc2F)sc1C(=O)O [Compound 101]', 'recombinant HCV NS5B (HCV RNA-dependent RNA polymerase) (Hepatitis C virus genotype 1b)', '> 5.30'),
  ('CC1CCCCC1C(=O)N(c1cc(-c2ccccc2)sc1C(=O)O)C(C)C (stereo not shown) [Compound 379]', 'recombinant HCV NS5B (HCV RNA-dependent RNA polymerase) (Hepatitis C virus genotype 1b)', '4.70 to 5.30'),
  ('CCOC(=O)c1cccc(-c2cc(NS(=O)(=O)c3ccccc3C)c(C(=O)O)s2)c1 [Compound 121]', 'recombinant HCV NS5B (HCV RNA-dependent RNA polymerase) (Hepatitis C virus genotype 1b)', '4.70 to 5.30'),
  ('O=C(O)c1sc(-c2ccccc2)cc1NS(=O)(=O)c1cc(F)ccc1F [Compound 53]', 'recombinant HCV NS5B (HCV RNA-dependent RNA polymerase) (Hepatitis C virus genotype 1b)', '> 5.30'),
  ('CC1CCCCC1C(=O)N(c1cc(-c2ccccc2)sc1C(=O)O)C(C)C (stereo not shown) [Compound 378]', 'recombinant HCV NS5B (HCV RNA-dependent RNA polymerase) (Hepatitis C virus genotype 1b)', '4.70 to 5.30'),
  ('Cc1ccc(C(=O)N(C)c2cc(-c3ccc(C)cc3)sc2C(=O)O)cc1 [Compound 199]', 'recombinant HCV NS5B (HCV RNA-dependent RNA polymerase) (Hepatitis C virus genotype 1b)', '4.70 to 5.30'),
  ('CC(C)=CCN(C(=O)c1ccc(C)cc1)c1cc(-c2ccccc2)sc1C(=O)O [Compound 300]', 'recombinant HCV NS5B (HCV RNA-dependent RNA polymerase) (Hepatitis C virus genotype 1b)', '4.70 to 5.30'),
  ('CCCCC(=O)N(C)c1cc(-c2ccccc2)sc1C(=O)O [Compound 389]', 'recombinant HCV NS5B (HCV RNA-dependent RNA polymerase) (Hepatitis C virus genotype 1b)', '> 5.30');
